Reference source: patent US20190127480A1

SYSTEM UNDER TEST: T1, human PSMA expressed with an N-terminal hexahistidine tag (6h.hPSMA, R&D) (human, UniProt Q04609 44-750)
T1 construct: Bought soluble protein; also called soluble human PSMA; human PSMA protein
T1 sequence (Q04609 other isoform, or with tags, fused parts or gaps limits assumed): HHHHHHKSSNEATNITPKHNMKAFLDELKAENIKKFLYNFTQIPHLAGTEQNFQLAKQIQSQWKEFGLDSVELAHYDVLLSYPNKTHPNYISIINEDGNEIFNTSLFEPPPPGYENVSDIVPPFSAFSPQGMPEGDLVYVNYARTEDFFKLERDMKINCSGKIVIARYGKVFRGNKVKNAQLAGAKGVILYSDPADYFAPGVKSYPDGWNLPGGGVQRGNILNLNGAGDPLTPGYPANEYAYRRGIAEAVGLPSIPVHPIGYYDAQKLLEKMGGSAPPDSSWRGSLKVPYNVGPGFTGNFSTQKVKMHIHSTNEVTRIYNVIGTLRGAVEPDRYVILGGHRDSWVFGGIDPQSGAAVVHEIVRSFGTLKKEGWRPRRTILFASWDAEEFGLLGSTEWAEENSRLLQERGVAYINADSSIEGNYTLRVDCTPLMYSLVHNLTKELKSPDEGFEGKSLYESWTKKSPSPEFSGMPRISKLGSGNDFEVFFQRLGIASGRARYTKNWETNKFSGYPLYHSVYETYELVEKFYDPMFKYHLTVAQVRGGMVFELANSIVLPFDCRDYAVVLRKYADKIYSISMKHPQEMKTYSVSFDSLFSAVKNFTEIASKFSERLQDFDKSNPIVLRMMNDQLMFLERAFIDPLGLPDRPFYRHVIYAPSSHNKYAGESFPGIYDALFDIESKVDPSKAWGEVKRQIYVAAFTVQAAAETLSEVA
TEST METHOD NOTES: SPR Biacore T-200, 37 C, antibody-capture (anti-human Fc), 6h.hPSMA as analyte
VALUE TYPE: kon (M⁻¹ s⁻¹)
Form entry: value (M⁻¹ s⁻¹) — number only.

Req: Recorded kon of H1H11805P2 (antibody, human IgG1, V domains shown, human IgG1) VH: EVQLVESGGGLVQPGGSLRLSCVVSGFTFNNYWMSWVRQAPGKGLEWVANIKKDGSEKYYVDSVKGRFTISRDNAKNSLYLQMNSLRAEDTAVYYCARDIMATIIDWGQGTLVTVSS VL: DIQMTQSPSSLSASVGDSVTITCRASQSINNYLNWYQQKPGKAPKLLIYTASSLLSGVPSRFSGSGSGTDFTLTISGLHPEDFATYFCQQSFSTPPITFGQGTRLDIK , please.
Resp: 129000

Req: Form field: reported kon of H1H11800P2 (antibody, human IgG1, V domains shown, human IgG1) VH: QVQLVESGGGVVQPGRSLRLSCAASGFTFSSYGMHWVRQAPGKGLEWVAVISYAGNNKYYVDSVKGRFTISRDNSKNTLYLQMNSLRAEDTAVYYCAKDPYYDFLTGSDYFDYWGQGTLVTVSS VL: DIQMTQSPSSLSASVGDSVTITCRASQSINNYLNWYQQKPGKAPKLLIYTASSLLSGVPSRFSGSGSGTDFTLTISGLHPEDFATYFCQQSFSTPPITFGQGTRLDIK
Resp: 251000
